The values you see were collected from patent US10913736B2.

IC50, UniProtKB Q38C91, per-entry values.
The response must be a number in nM with no trailing unit.

Data point: "O=C(CCOc1ccc(Cl)cc1Cl)NCc1nc2cccnc2[nH]1" ; IC50 = 280

Data point: "Fc1ccc2[nH]c(CCCNCc3cc(Cl)cc(Cl)c3)nc2n1" ; IC50 = 340

Data point: "COc1c(Br)cc(Br)cc1CN[C@H]1CCCN(c2nc3nc(Cl)ccc3[nH]2)C1" ; IC50 = 20

Data point: "Clc1ccc(CN[C@@H]2CCN(c3nc4ccc(Cl)nc4[nH]3)C2)c(Cl)c1" ; IC50 = 847

----------
Target: MetRS (T. brucei) (Trypanosoma brucei brucei)
Sequence (Q38C91 entry or part of it): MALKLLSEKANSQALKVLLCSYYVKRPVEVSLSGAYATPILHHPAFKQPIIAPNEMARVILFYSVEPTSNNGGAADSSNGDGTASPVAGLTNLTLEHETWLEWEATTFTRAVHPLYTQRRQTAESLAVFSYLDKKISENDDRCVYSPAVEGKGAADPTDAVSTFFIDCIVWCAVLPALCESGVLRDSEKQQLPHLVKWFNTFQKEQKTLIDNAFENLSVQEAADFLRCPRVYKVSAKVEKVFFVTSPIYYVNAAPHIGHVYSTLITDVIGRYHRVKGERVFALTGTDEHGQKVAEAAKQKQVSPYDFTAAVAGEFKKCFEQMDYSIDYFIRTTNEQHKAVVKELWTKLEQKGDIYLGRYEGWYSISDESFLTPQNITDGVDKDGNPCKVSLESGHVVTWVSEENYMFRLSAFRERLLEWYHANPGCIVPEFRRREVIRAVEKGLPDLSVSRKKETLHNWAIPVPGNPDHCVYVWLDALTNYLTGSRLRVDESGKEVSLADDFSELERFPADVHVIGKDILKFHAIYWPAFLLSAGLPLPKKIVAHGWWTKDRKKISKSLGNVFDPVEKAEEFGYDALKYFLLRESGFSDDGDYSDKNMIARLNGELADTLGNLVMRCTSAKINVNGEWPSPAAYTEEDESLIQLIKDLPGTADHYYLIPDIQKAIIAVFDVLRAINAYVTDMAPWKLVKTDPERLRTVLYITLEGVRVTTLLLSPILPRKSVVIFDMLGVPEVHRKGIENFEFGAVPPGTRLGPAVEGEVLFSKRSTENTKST
Doc: threshold 20 nM (exclusive). Items with IC50 beneath it return YES; others return NO.

I wonder whether CN(CCNCc1cc(Cl)cc(Cl)c1)c1nc2ccc(Cl)nc2[nH]1 [Compound 1893] has IC50 below 20 nM. Can you tell?
YES

I wonder whether CC(Cc1nc2ccc(C(F)(F)F)cc2[nH]1)NCc1cc(Cl)cc(Cl)c1 (centres unmarked) [Compound 1825] has IC50 below 20 nM. Can you tell?
NO

I wonder whether Clc1cc(Cl)cc(CNCCCNc2nc3ncccc3[nH]2)c1 [Compound 1575] has IC50 below 20 nM. Can you tell?
YES

I wonder whether Clc1cc(Cl)cc(CNCCNc2nc3ccc(Cl)cc3[nH]2)c1 [Compound 1829] has IC50 below 20 nM. Can you tell?
NO

I wonder whether O=C(Cc1cc(Cl)cc(Cl)c1)NCc1nc2ccc(Br)cc2[nH]1 [Compound 1873] has IC50 below 20 nM. Can you tell?
NO

I wonder whether CN(CCN(CCN(C)c1nc2nc(F)ccc2[nH]1)[C@@H]1CCNc2c(Cl)cc(Cl)cc21)c1nc2nc(F)ccc2[nH]1 [Compound 1939] has IC50 below 20 nM. Can you tell?
NO

I wonder whether O=C(NCc1cc(Cl)cc(Cl)c1)NCc1nc2ccc(Cl)nc2[nH]1 [Compound 1991] has IC50 below 20 nM. Can you tell?
YES

I wonder whether O=C(COc1ccc(Cl)cc1Cl)NCCc1nc2ccccc2[nH]1 [Compound 1675] has IC50 below 20 nM. Can you tell?
NO
